- Experiment: Primary qHTS for delayed death inhibitors of the malarial parasite plastid, 96 hour incubation
- Recorded conditions: P. falciparum luciferase reporter growth; series mostly up to 28.7 µM
Among all 320,000 compounds or so, about 22,000 (6.9%) were called active. Another 27% or so got no clear call; they are omitted. Calls follow the shape of the dose curve; as a rule, active = well fitted inhibition curve with a large enough effect; inconclusive = small, poorly fitted or top-dose-only effect, or another doubt; inactive = no such curve, though single readings can be large or run the other way. The sample as a whole holds a higher share of actives than the screen did.
Outcomes: t for active, f for inactive

O=C(O)Cn1c(Cc2ccccc2)nc2ccccc21 : f
CC1C(=O)Nc2ccccc2N1C(=O)c1ccc(F)cc1F (centres undefined) : f
O=C(NCC1CCCO1)c1cc2c(s1)CCCC2 (centres undefined) : f
O=S(=O)(c1cccc(-c2nnc(SC(F)F)n2-c2ccccc2)c1)N1CCCCC1 : t
CCOC(=O)c1c(CNCc2ccccc2F)c2sc(C)cc2n1C : f
Cc1ccc(S(=O)(=O)N(Cc2ccccc2)c2ccccn2)cc1[N+](=O)[O-] : f
Cc1c(CC(=O)NCC(=O)NCC(=O)O)c(=O)oc2cc3oc4c(c3cc12)CCCC4 : f
O=C(N/N=C/c1cccnc1)c1ccc(NC(=O)c2ccc(F)cc2)cc1 : f
COc1ccc(/C=C/C(=O)NC(=S)NN2CCCCC2c2cccnc2)cc1 (centres undefined) : t
CC(C)c1ccc(OCC(O)CN2CCN(c3ccccn3)CC2)cc1 (centres undefined) : f
O=C(Nc1c2c(nn1-c1ccccc1)CS(=O)(=O)C2)C1CCCC1 : f
CCOc1cccc(-c2nn3c(-c4ccccn4)nnc3s2)c1 : t
Cc1cc2nc3n(c2cc1C)CC1CC(C(=O)NCCC(C)C)N(C)C31 (centres undefined) : f
Cc1ccc(CC2C(=O)N(c3ccc(F)cc3)C(=O)C2C)cc1 (centres undefined) : f
CCOc1ccc(NC(=S)NC(=O)/C=C/c2ccc(OC)cc2)c([N+](=O)[O-])c1 : f
CCc1c(C)c2ccc(OC3CCCCC3=O)cc2oc1=O (centres undefined) : f
O=C(NCCS(=O)(=O)N1CCN(c2ccccc2)CC1)c1ccco1 : f
CCOc1ccc(CN2CCN(Cc3c[nH]c4ccccc34)CC2)cc1 : f
O=S(=O)(c1cccc(-c2cn3ccccc3n2)c1)N1CCCC1 : f
CC(C)Nc1ccc(-n2nc3ccccc3[n+]2[O-])cc1 : f
CC(=O)NC(CC(=O)Nc1cccc(S(=O)(=O)N2CCCC2)c1)c1ccccc1 (centres undefined) : f
C/C(=C/c1ccccc1)C(=O)N1CCN(c2ccccc2)CC1 : f
CCOC(=O)c1cc2c(nc1NC(=S)Nc1ccccc1)CC(C)(CC)OC2 (centres undefined) : t
O=C(CN1CCN(c2ccccn2)CC1)Nc1ccc(Br)cc1 : f
COc1cc2c(cc1OC)C(C(=O)Nc1cc(C)c(OC)c(C)c1)CC(=O)N2 (centres undefined) : f
Cc1ccc(Cn2c(SCC(=O)N/N=C/c3ccccc3OCC(=O)O)nc3ccccc32)cc1 : f
CC1(C)O[C@@H]2[C@H](O1)[C@@H](CO)O[C@H]2n1c(N2CCCCC2)nc2c(N)ncnc21 : f
O=[N+]([O-])c1ccc(N2CCN(CC(O)COc3ccccc3)CC2)cc1 (centres undefined) : f
CN1C2CCC1CC(NC(=O)c1ccc([N+](=O)[O-])cc1)C2 (centres undefined) : f
Cc1ccc(CNC(=O)CCN2C(=O)[C@@H]3Cc4ccccc4CN3C2=O)cc1 : f
CC(NC(=O)c1ccccc1SCC(=O)N1CCCC1)c1ccccc1 (centres undefined) : f
Cc1ccc(S(=O)(=O)N(C)CC(=O)OCC(=O)Nc2ccccc2)cc1 : f
N#CCCN(C(=O)COC(=O)C1CCN(c2ccc(C(F)(F)F)cn2)CC1)c1ccc(F)cc1 : f
C/C(=N\NC(=O)c1cccc([N+](=O)[O-])c1)c1cccnc1 : f
CCOC(=O)c1ccc(NC(=S)Nc2cc(C)cc(C)n2)cc1 : f
OC(COc1ccc(Br)cc1)CN1CCCC1 (centres undefined) : f
CC(=O)Nc1ccc(S(=O)(=O)NCC2CCC(C(=O)NCCc3ccccc3)CC2)cc1 (centres undefined) : f
O=C(CN1CCN(c2ccc(Cl)cc2)CC1)c1ccccc1 : f
Cc1ccc(NC2CCCN(C(=O)CCc3cn[nH]c3)C2)cc1C (centres undefined) : f
COc1ccc(CNC(=O)C(C)NCc2ccccc2Cl)cc1 (centres undefined) : f
O=C(CN1C(=O)CSC1=O)N1CCCC(Nc2ccc(F)cc2)C1 (centres undefined) : t
CS(=O)(=O)c1ccccc1C(=O)Nc1ccc2sccc2c1 : f
NC(=O)C(Cc1ccccc1)NC(=O)C12CC3CC(CC(C3)C1)C2 (centres undefined) : f
COc1ccc(OC)c(S(=O)(=O)N2CCCC(C(=O)NCCc3ccccc3)C2)c1 (centres undefined) : f

Measured values drawn from PubChem BioAssay AID504834 for this set.
